- Tested on: estrogen-related receptor alpha (ERRalpha) with PGC-1alpha coactivator, human
- test_method_notes: qHTS assay to identify small molecule antagonists of the estrogen related receptor signaling pathway with the pleiotropic PPARgamma coactivator (PGC) (AID 1224821); also: nearly all actives have a fitted effect of over 50% in size
- condition_parameters: ERR/PGC reporter cell line, luciferase, antagonist mode; series mostly up to 46.1 µM
Results filed as inconclusive are left out. Calls of active or inactive are those of the source. Calls follow the shape of the full dose curve.
Please answer using one outcome listed in 1 (yes) (active), 0 (no) (inactive)

Example results:
compound: CCCCC#Cc1nc(NC)c2ncn([C@@H]3O[C@H](CO)[C@@H](O)C3O)c2n1 (stereo partly drawn)
cat: 0 (no)
//
compound: O=C(O)C1CCCNC1 (stereo not drawn)
cat: 0 (no)
//
compound: COC(=O)C(N)Cc1ccc(Cl)cc1 (stereo not drawn)
cat: 0 (no)
//
compound: O=c1[nH]c2cc(C(F)(F)F)ccc2n1-c1cc(C(F)(F)F)ccc1O
cat: 0 (no)
//
compound: N[C@H](C(=O)O)c1cc(O)cc(O)c1
cat: 0 (no)

Prompt: Dear colleague, could you share the recorded outcome for O=C1C(SCCO)=C(SCCO)C(=O)c2ccccc21 when you have a moment?
Response: 1 (yes)

Prompt: Dear colleague, could you share the recorded outcome for O=C(c1ccc(OCCCc2cnc[nH]2)cc1)C1CC1 when you have a moment?
Response: 0 (no)

Prompt: Dear colleague, could you share the recorded outcome for CNC(=O)c1cc2c(cn1)[nH]c1ccccc12 when you have a moment?
Response: 0 (no)

Prompt: Dear colleague, could you share the recorded outcome for NC(N)=NC(N)=Nc1ccccc1 when you have a moment?
Response: 0 (no)

Prompt: Dear colleague, could you share the recorded outcome for CCCCCCCCCCC/C=C\C(C)(C)/C=C\CCCC(=O)O when you have a moment?
Response: 0 (no)

Prompt: Dear colleague, could you share the recorded outcome for Cn1cc(C(=O)OCC2CCN(CCNS(C)(=O)=O)CC2)c2ccccc21 when you have a moment?
Response: 0 (no)

Prompt: Dear colleague, could you share the recorded outcome for CC1C(=O)N(C)C(=O)c2nc[nH]c21 (stereo not drawn) when you have a moment?
Response: 0 (no)

Prompt: Dear colleague, could you share the recorded outcome for CCCC[C@@]1(C2CCCC2)Cc2cc(OCC(=O)O)c(Cl)c(Cl)c2C1=O when you have a moment?
Response: 1 (yes)

###

- test_method_notes: qHTS assay to test for compound auto fluorescence at 590 nm (red) in HEK293 cells (AID 720679)
- condition_parameters: red autofluorescence 540/590 nm; series mostly up to 46 µM
Activity calls are given as the source filed them. Calls come from the whole dose curve; as a rule, active = well fitted curve in the direction sought with a large enough effect in the repeat runs; inconclusive = weak or mixed curves; inactive = flat fitted curve, though single readings scatter.
observed_property: outcome

Example compounds with recorded outcome:
compound: O=c1[nH]c(=O)n([C@H]2C[C@H](O)[C@@H](CO)O2)cc1/C=C/Br
outcome: inactive
--
compound: Cc1ccc2nc(-c3ccc(N)cc3)sc2c1S(=O)(=O)O
outcome: inactive
--
compound: COc1cc([C@@H]2c3cc4c(cc3[C@@H](O[C@@H]3O[C@@H]5CO[C@@H](C)O[C@H]5[C@H](O)[C@H]3O)[C@H]3COC(=O)[C@H]23)OCO4)cc(OC)c1O
outcome: inactive
--
compound: CCOc1cc(CC(=O)N[C@@H](CC(C)C)c2ccccc2N2CCCCC2)ccc1C(=O)O
outcome: inactive
--
compound: c1ccc2occc2c1
outcome: inactive
--
compound: O=C(O)[C@H]1CN(C/C=C/P(=O)(O)O)CCN1
outcome: inactive
--
compound: OCl
outcome: inactive
--
compound: CO/N=C(\C(=O)N[C@@H]1C(=O)N2C(C(=O)O)=C(COC(C)=O)CS[C@H]12)c1csc(N)n1 (stereo in doubt)
outcome: inactive
--
compound: CC(C)(O/N=C(\C(=O)N[C@@H]1C(=O)N2C(C(=O)[O-])=C(C[n+]3ccccc3)CS[C@H]12)c1csc(N)n1)C(=O)O
outcome: inactive
--
compound: O=C1c2ccccc2CN2C(=O)c3ccccc3CN12
outcome: inactive

For each entry beneath this line, provide reported outcome.
1. O=C(O)c1ccc(NC2OC[C@@H](O)[C@H](O)[C@H]2O)cc1 (some centres undefined)
2. Cc1ccc(Cl)c(N)c1Cl

Response:
1. inactive
2. inactive

For each entry beneath this line, provide reported outcome.
1. NCCCC[C@H](NC(=O)[C@@H]1CCCN1C(=O)[C@@H]1CSSC[C@H](N)C(=O)N[C@@H](Cc2ccc(O)cc2)C(=O)N[C@@H](Cc2ccccc2)C(=O)N[C@@H](CCC(N)=O)C(=O)N[C@@H](CC(N)=O)C(=O)N1)C(=O)NCC(N)=O
2. NC(=O)CC[C@@H]1NC(=O)[C@H](Cc2ccccc2)NC(=O)[C@H](Cc2ccc(O)cc2)NC(=O)[C@@H](N)CSSC[C@@H](C(=O)N2CCC[C@H]2C(=O)N[C@@H](CCCN=C(N)N)C(=O)NCC(N)=O)NC(=O)[C@H](CC(N)=O)NC1=O
3. COc1ccc(/C=N/NC(=O)c2ccncc2)c(C(=O)O)c1OC
4. Cc1ncc(C[n+]2csc(CCOP(=O)(O)O)c2C)c(N)n1
5. COC(=O)[C@H]1[C@H]2C[C@H]3c4[nH]c5ccccc5c4CCN3C[C@H]2CC[C@@H]1O
6. C[C@H](NCCc1ccc(O)cc1)[C@H](O)c1ccc(O)cc1
7. O=P(O)(O)OP(=O)(O)OP(=O)(O)O

Response:
1. inactive
2. inactive
3. inactive
4. inactive
5. inactive
6. inactive
7. inactive
